Below are compounds with their AC50 as measured on Gamma-aminobutyric acid receptor subunit alpha-1 (Rattus norvegicus).
Sequence (P62813 whole entry): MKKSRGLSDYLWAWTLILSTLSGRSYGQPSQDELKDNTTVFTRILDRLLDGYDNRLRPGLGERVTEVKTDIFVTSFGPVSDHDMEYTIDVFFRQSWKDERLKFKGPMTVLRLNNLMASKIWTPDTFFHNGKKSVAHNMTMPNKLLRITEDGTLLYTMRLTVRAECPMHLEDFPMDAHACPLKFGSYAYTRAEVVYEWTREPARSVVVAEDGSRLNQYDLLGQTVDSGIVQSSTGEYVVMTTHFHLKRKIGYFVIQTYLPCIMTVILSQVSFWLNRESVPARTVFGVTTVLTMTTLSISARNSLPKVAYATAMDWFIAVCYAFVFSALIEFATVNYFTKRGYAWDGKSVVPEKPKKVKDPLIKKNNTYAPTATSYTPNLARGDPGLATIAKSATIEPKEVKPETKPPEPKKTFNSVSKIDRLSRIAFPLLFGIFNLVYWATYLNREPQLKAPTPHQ

[
  {
    "COMPOUND": "CN(C)CCc1c[nH]c2ccc(CS(=O)(=O)N3CCCC3)cc12",
    "TARGET DESC": "Gamma-aminobutyric acid receptor subunit alpha-1 (Rattus norvegicus)",
    "AC50": "> 30 µM"
  },
  {
    "COMPOUND": "CN1CCC(=C2c3ccccc3CC(=O)c3sccc32)CC1",
    "TARGET DESC": "Gamma-aminobutyric acid receptor subunit alpha-1 (Rattus norvegicus)",
    "AC50": "> 10 µM"
  },
  {
    "COMPOUND": "C[C@@H](Cc1ccccc1)N(C)Cc1ccccc1",
    "TARGET DESC": "Gamma-aminobutyric acid receptor subunit alpha-1 (Rattus norvegicus)",
    "AC50": "> 10 µM"
  },
  {
    "COMPOUND": "C[C@]12C=CC(=O)C=C1C(Cl)=C[C@@H]1[C@@H]2[C@@H](O)C[C@@]2(C)[C@H]1CC[C@]2(O)C(=O)CO",
    "TARGET DESC": "Gamma-aminobutyric acid receptor subunit alpha-1 (Rattus norvegicus)",
    "AC50": "> 30 µM"
  },
  {
    "COMPOUND": "CCC1(CC)C(=O)NC(=O)N(C)C1=O",
    "TARGET DESC": "Gamma-aminobutyric acid receptor subunit alpha-1 (Rattus norvegicus)",
    "AC50": "> 10 µM"
  },
  {
    "COMPOUND": "CCN(CCO)CCCC(C)Nc1ccnc2cc(Cl)ccc12 (centres undefined) [HYDROXYCHLOROQUINE]",
    "TARGET DESC": "Gamma-aminobutyric acid receptor subunit alpha-1 (Rattus norvegicus)",
    "AC50": "> 10 µM"
  },
  {
    "COMPOUND": "CCCCOC(=O)C(=O)Nc1cccc(-c2nnn[nH]2)c1",
    "TARGET DESC": "Gamma-aminobutyric acid receptor subunit alpha-1 (Rattus norvegicus)",
    "AC50": "> 30 µM"
  },
  {
    "COMPOUND": "CN1C2CCCC1CC(NC(=O)c1nn(C)c3ccccc13)C2 (centres undefined)",
    "TARGET DESC": "Gamma-aminobutyric acid receptor subunit alpha-1 (Rattus norvegicus)",
    "AC50": "> 10 µM"
  },
  {
    "COMPOUND": "O=C(O)c1ccc2nc(-c3cc(Cl)cc(Cl)c3)oc2c1",
    "TARGET DESC": "Gamma-aminobutyric acid receptor subunit alpha-1 (Rattus norvegicus)",
    "AC50": "> 30 µM"
  }
]

---

AC50 overview
Molecular target: UniProtKB P08908
Sequence (P08908 whole entry): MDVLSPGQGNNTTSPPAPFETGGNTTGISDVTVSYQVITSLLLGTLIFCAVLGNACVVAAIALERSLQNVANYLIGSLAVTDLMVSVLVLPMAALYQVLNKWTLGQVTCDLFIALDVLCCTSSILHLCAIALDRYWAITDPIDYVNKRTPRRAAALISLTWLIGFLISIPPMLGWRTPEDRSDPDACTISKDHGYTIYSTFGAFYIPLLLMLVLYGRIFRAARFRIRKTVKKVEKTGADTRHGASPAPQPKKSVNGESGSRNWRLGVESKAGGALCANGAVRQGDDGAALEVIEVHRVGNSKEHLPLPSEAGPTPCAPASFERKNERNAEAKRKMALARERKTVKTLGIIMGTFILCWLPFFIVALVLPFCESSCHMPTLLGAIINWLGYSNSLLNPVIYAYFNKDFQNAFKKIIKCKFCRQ
Format: functional, cell-based
MEASURED ATTRIBUTE: AC50

[
  {
    "MOLECULE": "CCC(=O)c1ccc2c(c1)N(CC(C)N(C)C)c1ccccc1S2 (centres undefined) [PROPIOMAZINE]",
    "MEASURED ATTRIBUTE": "AC50",
    "MEASURED RESULT": "> 30 µM"
  },
  {
    "MOLECULE": "C[C@H](Nc1ncnc2[nH]cnc12)c1cc2cccc(Cl)c2c(=O)n1-c1ccccc1 [DUVELISIB]",
    "MEASURED ATTRIBUTE": "AC50",
    "MEASURED RESULT": "> 30 µM"
  },
  {
    "MOLECULE": "Clc1ccc(COC(Cn2ccnc2)c2ccc(Cl)cc2Cl)c(Cl)c1 (centres undefined) [MICONAZOLE]",
    "MEASURED ATTRIBUTE": "AC50",
    "MEASURED RESULT": "> 10 µM"
  },
  {
    "MOLECULE": "C[C@]12C=CC(=O)C=C1C(Cl)=C[C@@H]1[C@@H]2[C@@H](O)C[C@@]2(C)[C@H]1CC[C@]2(O)C(=O)CO [CLOPREDNOL]",
    "MEASURED ATTRIBUTE": "AC50",
    "MEASURED RESULT": "> 30 µM"
  },
  {
    "MOLECULE": "COc1cc(N)cn[n+]1-c1ccccc1 [AMEZINIUM METILSULFATE]",
    "MEASURED ATTRIBUTE": "AC50",
    "MEASURED RESULT": "> 30 µM"
  },
  {
    "MOLECULE": "O=C(C[S+]([O-])Cc1ccco1)NC/C=C\\COc1cc(CN2CCCCC2)ccn1 (centres undefined) [LAFUTIDINE]",
    "MEASURED ATTRIBUTE": "AC50",
    "MEASURED RESULT": "> 30 µM"
  },
  {
    "MOLECULE": "CC(C)C[C@H](NC(=O)[C@H](Cc1ccccc1)NC(=O)c1cnccn1)B(O)O [BORTEZOMIB]",
    "MEASURED ATTRIBUTE": "AC50",
    "MEASURED RESULT": "> 30 µM"
  },
  {
    "MOLECULE": "CC(=O)Oc1ccccc1C(=O)O [ASPIRIN]",
    "MEASURED ATTRIBUTE": "AC50",
    "MEASURED RESULT": "> 10 µM"
  },
  {
    "MOLECULE": "O=C(O)[C@H]1/C(=C/CO)O[C@@H]2CC(=O)N21 [CLAVULANIC ACID]",
    "MEASURED ATTRIBUTE": "AC50",
    "MEASURED RESULT": "> 30 µM"
  }
]
